Exercise: state measured AC50 for each of the molecules provided.
- Tested on: S. cerevisiae Mot1-301 ts growth rescue, BacTiter-Glo ATP luminescence
- TEST SUMMARY: restored Mot1-301 yeast growth at 38.5C – whole organism, S. cerevisiae, Mot1-301 ts mutant, luminescence, dose retest, SUMOylation pathway inhibitor project, confirmation (AID 463204);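 also: growth at restrictive 38.5 degrees C of Mot1-301 OY566 strain; actives raise luminescence by restoring growth of the ts mutant at high temperature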
Calls of active or inactive are those of the source.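 The calls were made as follows: active = AC50 no more than ten times the top concentration tested, that is within one log above it; inconclusive = flat curve fit with activity between 30% and 70%, or invalid poor fit; inactive = AC50 beyond ten times the top tested dose.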

Query: AC50; subject: COc1cc2c(cc1OC)C(c1ccccc1[N+](=O)[O-])N(C(C)=O)CC2 (stereo not drawn)
> 42 µM (inactive)

Query: AC50; subject: N=c1ncn(CC(O)CO)c2nc(N3CCOCC3)[nH]c12 (stereo not drawn)
> 42 µM (inactive)

Query: AC50; subject: Cc1sc2ncn(C(C)C(=O)OC3CCCCC3)c(=O)c2c1C (stereo not drawn)
> 42 µM (inactive)

Query: AC50; subject: C/C=C\C=C/C(=O)Nc1cccc(C2=NOC3(C2)C[C@@H](C(N)=O)N(C(=O)c2ccccc2)C3)c1 (stereo partly drawn)
> 42 µM (inactive)

Query: AC50; subject: O=C(O)c1ccc(COc2c(F)c(F)cc(F)c2F)cc1
> 42 µM (inactive)

Query: AC50; subject: N/C(Cn1cncn1)=N\NC(=O)c1ccc(Cl)cc1Cl
> 42 µM (inactive)

Query: AC50; subject: COc1ccc(C)cc1NC(=S)N1CCN(c2ccccn2)CC1
> 42 µM (inactive)

Query: AC50; subject: CCCCCC(=O)Nc1nnn(CCC)n1
> 42 µM (inactive)

Query: AC50; subject: Cc1ccc(-n2nnnc2C(Cl)(Cl)c2nnnn2-c2ccc(C)cc2)cc1
0.73 µM

Query: AC50; subject: CCOc1ccc(C(=O)c2cccs2)cc1
> 42 µM (inactive)

Query: AC50; subject: O=C1C2CCCN2C(=S)N1C1CCCCC1 (stereo not drawn)
> 42 µM (inactive)

Query: AC50; subject: CC[n+]1c(/C=C(\C)SC)sc2ccccc21
29.5 µM

Query: AC50; subject: O=C(Nc1ccc2c(c1)oc1ccccc12)C1CC1
> 42 µM (inactive)

Query: AC50; subject: c1ccc2c(C[C@@H]3CNCCN3CCCCC3CCCCC3)cccc2c1
15.6 µM

Query: AC50; subject: CC(=O)NCCc1nc2cc(NC(=O)c3ccc(F)cc3)ccc2n1C
> 42 µM (inactive)

Query: AC50; subject: Cc1ccc(O)c(CNc2nc3ccccc3n2C)c1
> 42 µM (inactive)

Query: AC50; subject: CC1C(=O)CC(c2ccccc2)N(C)C1c1ccccc1 (stereo not drawn)
33.7 µM

Query: AC50; subject: CCCCN(C/C=C/c1ccccc1OC)Cc1ccccc1
> 42 µM (inactive)

---

- Tested on: S. cerevisiae Mot1-301 ts growth rescue, BacTiter-Glo ATP luminescence
- TEST SUMMARY: restored Mot1-301 yeast growth at 38.5C – whole organism, S. cerevisiae, Mot1-301 ts mutant, luminescence, dose retest, SUMOylation pathway inhibitor project, confirmation (AID 463204);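 also: growth at restrictive 38.5 degrees C of Mot1-301 OY566 strain; actives raise luminescence by restoring growth of the ts mutant at high temperature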
Activity calls are given as the source filed them.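 The calls were made as follows: active = AC50 no more than ten times the top concentration tested, that is within one log above it; inconclusive = flat curve fit with activity between 30% and 70%, or invalid poor fit; inactive = AC50 beyond ten times the top tested dose.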
Reply using exactly one outcome from active, inactive

Per the records of this test, what outcome belongs to CC(C)(C)c1ccc(CN(Cc2ccccc2)C(c2ccccn2)c2nnnn2C(C)(C)C)cc1 (centres undefined) ?
inactive

Per the records of this test, what outcome belongs to CCOC(=O)c1cc2sc(C)cc2n1CC(=O)Nc1ccc2c(c1)OCCO2 ?
inactive

Per the records of this test, what outcome belongs to Cc1cnc(NC(=O)CSc2nc3ccccc3s2)s1 ?
inactive

Per the records of this test, what outcome belongs to COc1ccc(Nc2cc(NCCCO)c([N+](=O)[O-])c3nonc23)cc1 ?
inactive

Per the records of this test, what outcome belongs to COCCNC(=O)C(=O)NCC1OCCN1C(=O)c1ccc(Cl)cc1 (centres undefined) ?
inactive

Per the records of this test, what outcome belongs to C=CC[N+]1(CC#Cc2ccccc2)CCCC1 ?
inactive

Per the records of this test, what outcome belongs to Cc1cc(C)c2c(=O)[nH]cnc2n1 ?
inactive

Per the records of this test, what outcome belongs to Cc1ccc(NC(=O)NNC(=O)Cn2nc(-c3ccccc3)c(-c3ccccc3)c(C#N)c2=O)cc1 ?
inactive

Per the records of this test, what outcome belongs to COC(=O)c1cc(N=Nc2c(C)[nH]c3ccccc23)cc(C(=O)OC)c1 ?
inactive

Per the records of this test, what outcome belongs to C=C(C)Cn1c(N)cc(=O)nc1SCC(=O)Nc1cccc(C(F)(F)F)c1 ?
inactive

Per the records of this test, what outcome belongs to COc1ccc2c(c1)OC[C@H]1[C@H]2N2C(=O)c3ccccc3NC(=O)[C@@]2(C)[C@H]1c1ccccc1 ?
inactive

Per the records of this test, what outcome belongs to NC1=NC(=Nc2ccc(S(N)(=O)=O)cc2)c2ccccc21 ?
inactive

Per the records of this test, what outcome belongs to Cc1nc2ccc(NC(=O)c3ccco3)cc2s1 ?
inactive

Per the records of this test, what outcome belongs to CC(=O)Nc1ccc(S(=O)(=O)Nc2cccc(-c3ccc4nncn4n3)c2)cc1 ?
inactive

Per the records of this test, what outcome belongs to Cc1cc(NC(=O)c2ccccc2F)n(C(C)(C)C)n1 ?
inactive

Per the records of this test, what outcome belongs to COc1cc(C(=O)NCCOc2cc(C)cc(C)c2)cc(OC)c1OC ?
inactive

Per the records of this test, what outcome belongs to CCC(c1nnnn1C1CCCC1)N1CCN(c2cccc(OC)c2)CC1 (centres undefined) ?
inactive

Per the records of this test, what outcome belongs to O=C(CCCCCn1c(=O)[nH]c2ccsc2c1=O)NCc1ccc(F)cc1 ?
inactive

Per the records of this test, what outcome belongs to COc1ccc(NC(=O)c2ccc(-c3csc(C)n3)cc2)cc1 ?
inactive

Per the records of this test, what outcome belongs to COC(=O)c1cc2c(s1)-c1ccc(OC)cc1CC2 ?
inactive

Per the records of this test, what outcome belongs to C=CCNc1nnc(SC2CC(=O)N(c3ccc(OCCC)cc3)C2=O)s1 (centres undefined) ?
active

Per the records of this test, what outcome belongs to Cc1ccc(O)c(C(=O)CC(=O)c2cccc(F)c2)c1 ?
active

Per the records of this test, what outcome belongs to C=CCN(C(=O)CNC(=O)c1ccco1)C(C(=O)NC1CCCCC1)c1ccccc1 (centres undefined) ?
inactive

Per the records of this test, what outcome belongs to Cc1sc(NC(=O)c2ccc(Br)s2)c(C(N)=O)c1C ?
inactive

---

- Tested on: S. cerevisiae Mot1-301 ts growth rescue, BacTiter-Glo ATP luminescence
- TEST SUMMARY: restored Mot1-301 yeast growth at 38.5C – whole organism, S. cerevisiae, Mot1-301 ts mutant, luminescence, dose retest, SUMOylation pathway inhibitor project, confirmation (AID 463204);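 also: growth at restrictive 38.5 degrees C of Mot1-301 OY566 strain; actives raise luminescence by restoring growth of the ts mutant at high temperature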
Active and inactive are the calls of the source.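 The calls were made as follows: active = AC50 no more than ten times the top concentration tested, that is within one log above it; inconclusive = flat curve fit with activity between 30% and 70%, or invalid poor fit; inactive = AC50 beyond ten times the top tested dose.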
Reply using exactly one outcome from active, inactive

Per the records of this test, what outcome belongs to COc1ccc(N2CCN(C3CCCN(Cc4cccc(OC)c4)C3)CC2)cc1 (centres undefined) ?
inactive

Per the records of this test, what outcome belongs to O=C(c1ccco1)N1CCN(CC(=O)N2c3ccccc3CCc3ccccc32)CC1 ?
inactive

Per the records of this test, what outcome belongs to CC(C)c1ccc(-c2cc(C(=O)N3CCOCC3)c3cc(Br)ccc3n2)cc1 ?
inactive

Per the records of this test, what outcome belongs to O=C(O)c1c(C(=O)O)c(-c2ccc(F)cc2)n2c1CCC2 ?
inactive

Per the records of this test, what outcome belongs to CCOC(=O)c1cc(C#N)c(Oc2ccccc2OC)nc1-c1ccccc1 ?
inactive

Per the records of this test, what outcome belongs to Nc1nc(SCc2nc3scc(-c4cccs4)c3c(=O)[nH]2)n[nH]1 ?
inactive

Per the records of this test, what outcome belongs to Cc1ccnc(NC(=O)c2ccc(Br)s2)c1 ?
inactive

Per the records of this test, what outcome belongs to COc1ccccc1NC(=O)NCCc1c[nH]c2ccccc12 ?
inactive

Per the records of this test, what outcome belongs to CC[C@H]1CCCCc2ccccc2[C@@H](C(=O)C[C@@H](O)CC(C)=O)OC1=O ?
active

---

- Tested on: S. cerevisiae Mot1-301 ts growth rescue, BacTiter-Glo ATP luminescence
- TEST SUMMARY: restored Mot1-301 yeast growth at 38.5C – whole organism, S. cerevisiae, Mot1-301 ts mutant, luminescence, dose retest, SUMOylation pathway inhibitor project, confirmation (AID 463204);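 also: growth at restrictive 38.5 degrees C of Mot1-301 OY566 strain; actives raise luminescence by restoring growth of the ts mutant at high temperature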
The source made the active and inactive calls.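 The calls were made as follows: active = AC50 no more than ten times the top concentration tested, that is within one log above it; inconclusive = flat curve fit with activity between 30% and 70%, or invalid poor fit; inactive = AC50 beyond ten times the top tested dose.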
Reply using exactly one outcome from true (1) for active, false (0) for inactive

Per the records of this test, what outcome belongs to CCOc1ccc(S(=O)(=O)N2CCN(C(=O)CN3C(=O)NC4(CCCC4)C3=O)CC2)cc1 ?
false (0)

Per the records of this test, what outcome belongs to O=C(N/N=C/c1cccc([N+](=O)[O-])c1)C1COc2ccccc2O1 (centres undefined) ?
false (0)

Per the records of this test, what outcome belongs to Oc1c(Br)cc(Br)cc1C=Nc1cccnc1 ?
true (1)

Per the records of this test, what outcome belongs to COc1ccc2c(c1)OC[C@H]1[C@H]2N2C(=O)c3cc(C)ccc3NC(=O)[C@@]2(C)[C@H]1c1ccccc1 ?
true (1)

Per the records of this test, what outcome belongs to CN1CCCC(n2nc(Cc3ccc(Cl)cc3)c3ccccc3c2=O)CC1 (centres undefined) ?
false (0)

Per the records of this test, what outcome belongs to Cc1cccc(N/N=C/c2c(O)[nH]c(=S)[nH]c2=O)c1 ?
false (0)

Per the records of this test, what outcome belongs to Cc1cc(S(=O)(=O)NCC(C)C)ccc1OCC(=O)N1CCOCC1 ?
false (0)

Per the records of this test, what outcome belongs to COC(=O)[C@H](Cc1ccccc1)NC(=O)NC(C)CCc1ccccc1 (some centres undefined) ?
false (0)

Per the records of this test, what outcome belongs to O=C(CCc1ccccc1)NNC(=O)c1ccc(Br)cc1 ?
false (0)

Per the records of this test, what outcome belongs to O=C(CS(=O)c1ccc(C(F)(F)F)cc1[N+](=O)[O-])Oc1ccc(Cl)cc1 (centres undefined) ?
true (1)

Per the records of this test, what outcome belongs to O=C(Nc1cccnc1Cl)c1cc2ccccc2o1 ?
false (0)

Per the records of this test, what outcome belongs to O=C(CSc1nc2ccc(Cl)cc2[nH]1)NCc1ccco1 ?
false (0)

Per the records of this test, what outcome belongs to CCCCCCCN1C(Nc2ccccc2)=NC[C@@H]1CC(C)C ?
false (0)

Per the records of this test, what outcome belongs to Cc1cc(C)n(CCCNC(=O)CN(C)S(=O)(=O)c2ccc(Cl)cc2)n1 ?
false (0)

Per the records of this test, what outcome belongs to CCOC(=O)C1C(c2ccc(C)o2)NC(=O)NC1(O)C(F)(F)F (centres undefined) ?
false (0)

Per the records of this test, what outcome belongs to CCOC(=O)c1c(C)[nH]c2c1cc(O)c1ccccc12 ?
false (0)

Per the records of this test, what outcome belongs to CCOC(=O)c1oc2c(c1C)C(=O)CCC2 ?
false (0)

Per the records of this test, what outcome belongs to CN(C)c1ccc(CN(Cc2ccco2)C(=O)c2ccco2)cc1 ?
false (0)

Per the records of this test, what outcome belongs to Cc1ccc(NS(=O)(=O)c2c(C)[nH]c(C)c2C(=O)N2CCCCC2)c(Cl)c1 ?
false (0)

Per the records of this test, what outcome belongs to COc1ccccc1N1CCN(C(=O)c2ccc(N3CCCCS3(=O)=O)cc2)CC1 ?
false (0)

Per the records of this test, what outcome belongs to CCC(C)(C(=O)NC1CCCC1)N(C(=O)c1ccccn1)c1ccc(C)cc1 (centres undefined) ?
false (0)

Per the records of this test, what outcome belongs to O=[N+]([O-])c1ccc(-c2csc(N3CCc4ccccc4C3)n2)cc1 ?
false (0)

Per the records of this test, what outcome belongs to O=C(c1ccc(F)cc1)C(CN1CCOCC1)c1ccccc1 (centres undefined) ?
true (1)

Per the records of this test, what outcome belongs to CN(C)c1ccc2nc3ccc(=[N+](C)C)cc-3sc2c1 ?
false (0)

Per the records of this test, what outcome belongs to Cc1ccc(NC(=S)N2CCN(Cc3ccc4c(c3)OCO4)CC2)c(C)c1 ?
false (0)

Per the records of this test, what outcome belongs to COc1cc(/C=N/NC(=O)c2cccnc2)ccc1OCC(=O)N1CCOCC1 ?
false (0)

Per the records of this test, what outcome belongs to Cc1cccc(C)c1NS(=O)(=O)c1ccc(OCCNS(C)(=O)=O)cc1 ?
false (0)

Per the records of this test, what outcome belongs to Cc1ccc(C(=O)c2cc([N+](=O)[O-])ccc2N2CCCCC2)cc1C ?
false (0)

Per the records of this test, what outcome belongs to COc1cc(C(=O)OCC(=O)NCc2ccccc2)cc(NC(=O)c2ccco2)c1OC ?
false (0)
